TOP blocking values by entry
# TARGET_SYSTEM: T1, human SIRPα v1 ECD recombinant protein (human, UniProt P78324 31-373)
# T1 construct: extracellular domain; Coated on the ELISA plate
# T1 sequence (P78324 31-373): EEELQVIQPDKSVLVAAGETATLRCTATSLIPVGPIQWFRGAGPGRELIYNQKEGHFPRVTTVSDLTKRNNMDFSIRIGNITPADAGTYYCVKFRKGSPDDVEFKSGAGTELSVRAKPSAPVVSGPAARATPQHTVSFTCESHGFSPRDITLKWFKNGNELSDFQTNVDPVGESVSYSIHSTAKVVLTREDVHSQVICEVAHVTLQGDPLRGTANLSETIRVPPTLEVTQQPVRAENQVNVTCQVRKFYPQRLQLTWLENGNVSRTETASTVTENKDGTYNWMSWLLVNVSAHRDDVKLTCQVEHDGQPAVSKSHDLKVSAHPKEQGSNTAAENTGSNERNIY
# ASSAY_PROTOCOL: competitive ELISA, plate-coated human SIRPα v1 ECD; blocked ligand: mFc tagged human CD47 ECD
# Method: Competitive ELISA assay was used to determine whether the purified chimeric antibodies can block CD47 and SIRPα interaction. Briefly, antibody and mFc tagged human CD47 ECD recombinant protein were co-incubated with ELISA microplate coated human SIRPα v1 ECD or human SIRPα v2 ECD recombinant protein. […] OD 450 nm was read. Blocking ratio was determined by blockade of human SIRPα ECD recombinant protein binding to ELISA microplate coated human CD47 ECD recombinant protein. […]
Record the value in %, omitting the unit from your answer.

Solved cases below.
// sample Anti-SIRPα antibody C15 (antibody, V domains shown, Mouse variable regions; tested as purified chimeric antibody; also called 015c) VH: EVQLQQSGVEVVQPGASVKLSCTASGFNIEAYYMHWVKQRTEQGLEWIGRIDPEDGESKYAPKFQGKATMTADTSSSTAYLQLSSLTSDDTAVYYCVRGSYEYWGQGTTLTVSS VL: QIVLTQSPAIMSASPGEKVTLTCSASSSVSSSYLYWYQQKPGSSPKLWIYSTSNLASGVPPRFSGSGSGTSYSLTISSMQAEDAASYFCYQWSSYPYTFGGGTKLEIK , its TOP blocking was 96.4

// sample Anti-SIRPα antibody C59 (antibody, V domains shown, Mouse variable regions; tested as purified chimeric antibody; also called 059c) VH: QVQLQQSGPELVKPGASVKMSCKASGYTFSEYVLSWVKQRTGQGLEWIGEIYPGTITTYYNEKFKGKATLTADKSSNTAYIQLTSLTSEDSAVYFCGRFYDYDGGWFAYWGQGTLLTVSA VL: ENVLTQSPEKMAVSLGQKVTMTCSASSSVSSSDLHWYQQKSGASPKPLIHGTSNLASGVPARFSGSGSGTSYSLTISSVEAEDAATYYCQQWSGYPWTFGGGTNLEIK , its TOP blocking was 97

// sample Anti-SIRPα antibody C73 (antibody, human IgG4, V domains shown, Mouse variable regions; also called 073c; 073C) VH: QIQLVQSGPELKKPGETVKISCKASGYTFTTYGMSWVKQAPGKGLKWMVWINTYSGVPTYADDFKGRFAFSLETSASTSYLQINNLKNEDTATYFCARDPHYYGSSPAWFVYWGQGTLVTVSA VL: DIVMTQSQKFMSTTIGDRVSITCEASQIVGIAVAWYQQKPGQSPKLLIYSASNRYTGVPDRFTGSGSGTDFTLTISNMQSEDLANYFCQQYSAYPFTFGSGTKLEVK , its TOP blocking was 95.1

// next item, TOP blocking requested
// sample Anti-SIRPα antibody C42 (antibody, human IgG4, V domains shown, Mouse variable regions; also called 042c) VH: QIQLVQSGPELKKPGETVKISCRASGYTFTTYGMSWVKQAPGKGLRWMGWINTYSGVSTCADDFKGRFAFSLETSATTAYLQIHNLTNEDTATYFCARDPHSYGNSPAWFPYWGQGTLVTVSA VL: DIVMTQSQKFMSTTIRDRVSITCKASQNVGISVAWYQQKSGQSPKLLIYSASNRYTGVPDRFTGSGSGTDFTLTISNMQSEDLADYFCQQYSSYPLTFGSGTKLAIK , its TOP blocking was 97.1
